# System: Guanine nucleotide-binding protein G(i) subunit alpha-1 (Homo sapiens)
# Assay text: Percent stimulation of [35S]GTP-gamma-S, binding to G alpha i1 at 5E-5 M of basal for 30 minutes
# Assay type: functional
Can you tell me Stimulation for the items I'm about to list?
API: value field is a number in %; no unit string.

Param readout = Stimulation; param system = Guanine nucleotide-binding protein G(i) subunit alpha-1 (Homo sapiens); param query = `CCCCCCCCCCCCC(=O)N1CCC(C2CCN(C)CC2)CC1` ; response: value
84

Param readout = Stimulation; param system = Guanine nucleotide-binding protein G(i) subunit alpha-1 (Homo sapiens); param query = `CCCCCCCCCCCCCCCCC(=O)N1CCC(C2CCNCC2)CC1` ; response: value
612

Param readout = Stimulation; param system = Guanine nucleotide-binding protein G(i) subunit alpha-1 (Homo sapiens); param query = `CCCCCCCCCCCCCCCNC(=O)C1CCN(CCNC=O)CC1` ; response: value
3290

Param readout = Stimulation; param system = Guanine nucleotide-binding protein G(i) subunit alpha-1 (Homo sapiens); param query = `CCCCCCCCCCCCCCCN1CCC(C2CCN(C)CC2)CC1` ; response: value
97

Param readout = Stimulation; param system = Guanine nucleotide-binding protein G(i) subunit alpha-1 (Homo sapiens); param query = `CCCCCCCCCCCCCCCNC1CCNCC1` ; response: value
3370

Param readout = Stimulation; param system = Guanine nucleotide-binding protein G(i) subunit alpha-1 (Homo sapiens); param query = `CCCCCCCCCCCCCCC(=O)N1CCC(C2CCNCC2)CC1` ; response: value
1540

Param readout = Stimulation; param system = Guanine nucleotide-binding protein G(i) subunit alpha-1 (Homo sapiens); param query = `CCCCCCCCCCCCCCC(=O)N1CCC(C2CCN(C)CC2)CC1` ; response: value
392

Param readout = Stimulation; param system = Guanine nucleotide-binding protein G(i) subunit alpha-1 (Homo sapiens); param query = `CCCCCCCCCCCCC(=O)N1CCC(C2CCNCC2)CC1` ; response: value
950

Param readout = Stimulation; param system = Guanine nucleotide-binding protein G(i) subunit alpha-1 (Homo sapiens); param query = `CCCCCCCCCCCCCN1CCC(C2CCN(C)CC2)CC1` ; response: value
704

Param readout = Stimulation; param system = Guanine nucleotide-binding protein G(i) subunit alpha-1 (Homo sapiens); param query = CCCCCCCCCCCCCCC[N+]1(C)CCC(C2CCNCC2)CC1 (configuration not stated) ; response: value
1580

Param readout = Stimulation; param system = Guanine nucleotide-binding protein G(i) subunit alpha-1 (Homo sapiens); param query = `CCCCCCCCCCCCCCCN1CCC(C2CCNCC2)CC1` ; response: value
1510

Param readout = Stimulation; param system = Guanine nucleotide-binding protein G(i) subunit alpha-1 (Homo sapiens); param query = `CCCCCCCCCCCCCCC(=O)N1CCN(N)CC1` ; response: value
173

---

# System: Guanine nucleotide-binding protein G(i) subunit alpha-1 (Homo sapiens, UniProt P63096)
# Sequence (P63096 whole entry): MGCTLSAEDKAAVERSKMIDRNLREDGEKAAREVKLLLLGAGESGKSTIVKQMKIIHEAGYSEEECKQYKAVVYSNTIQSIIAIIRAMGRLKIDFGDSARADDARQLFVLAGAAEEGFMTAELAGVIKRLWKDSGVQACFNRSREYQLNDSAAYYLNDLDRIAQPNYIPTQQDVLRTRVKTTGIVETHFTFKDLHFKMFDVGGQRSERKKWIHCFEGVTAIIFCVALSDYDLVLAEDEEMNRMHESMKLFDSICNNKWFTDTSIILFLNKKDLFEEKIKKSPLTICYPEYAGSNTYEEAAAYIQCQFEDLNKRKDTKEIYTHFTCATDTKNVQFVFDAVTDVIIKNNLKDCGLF
# Assay text: Concentration required to stimulate binding of [35S]GTP-gamma-S, with G alpha i1
Can you tell me EC50 for the items I'm about to list?
Please provide the amount together with its unit, number first.

Value lookup for EC50; key = `CCCCCCCCCCCCCCC(=O)N1CCC(C2CCNCC2)CC1`
8.6 µM

Value lookup for EC50; key = `CCCCCCCCCCCCCCCNC(=O)C1CCN(CCN)CC1`
18.4 µM

Value lookup for EC50; key = `CCCCCCCCCCCCCCCNC(=O)C1CCNCC1`
6.4 µM

Value lookup for EC50; key = `CCCCCCCCCCCCCCC(=O)NC1CCNCC1`
50.2 µM

Value lookup for EC50; key = `CCCCCCCCCCCCCCCN1CCC(NC2CCNCC2)CC1`
32.4 µM

Value lookup for EC50; key = `CCCCCCCCCCCCCNC1CCNCC1`
36.4 µM

Value lookup for EC50; key = `CCCCCCCCCCCCCCCN1CCC(N)CC1`
22.1 µM

Value lookup for EC50; key = `CCCCCCCCCCCCCCCN1CCN(N)CC1`
6.5 µM

Value lookup for EC50; key = `CCCCCCCCCCCCCCCNC1CCNCC1`
11.8 µM

Value lookup for EC50; key = `CCCCCCCCCCCCCCCNC(=O)C1CCN(CCNC=O)CC1`
8.6 µM

Value lookup for EC50; key = `CCCCCCCCCCCCCCC(=O)N1CCC(C2CCN(C)CC2)CC1`
6 µM

Value lookup for EC50; key = `CCCCCCCCCCCCCCC(=O)N1CCN(N)CC1`
28.6 µM

Value lookup for EC50; key = `CCCCCCCCCCCCCCCCC(=O)N1CCC(C2CCNCC2)CC1`
25.4 µM

Value lookup for EC50; key = `CCCCCCCCCCCCCCC(=O)N1CCC(N)CC1`
25.5 µM

Value lookup for EC50; key = `CCCCCCCCCCCCCCCCCN1CCC(C2CCNCC2)CC1`
35.7 µM

Value lookup for EC50; key = `CCCCCCCCCCCCCCCCC(=O)N1CCC(C2CCN(C)CC2)CC1`
23 µM

Value lookup for EC50; key = `CCCCCCCCCCCCCCCNCC1CCNCC1`
10.6 µM

Value lookup for EC50; key = `CCCCCCCCCCCCCCC(=O)N1CCC(CCC2CCNCC2)CC1`
6.6 µM

Value lookup for EC50; key = `CCCCCCCCCCCCCN1CCC(C2CCN(C)CC2)CC1`
18.7 µM

Value lookup for EC50; key = `CCCCCCCCCCCCCCCNCC1CCN(CCN)CC1`
17.8 µM

Value lookup for EC50; key = CCCCCCCCCCCCNC(=O)C(N)CCCCN (configuration not stated)
47.9 µM

Value lookup for EC50; key = `CCCCCCCCCCCCCCCN1CCC(C2CCNCC2)CC1`
19.1 µM

---

# System: Guanine nucleotide-binding protein G(i) subunit alpha-1 (Homo sapiens)
# Assay text: Percent stimulation of [35S]GTP-gamma-S, binding to G alpha i1 at 5E-5 M of basal for 30 minutes
# Type: functional
Can you tell me Stimulation for the items I'm about to list?
API: value field is a number in %; no unit string.

Value lookup for Stimulation; key = `CCCCCCCCCCCCCCC(=O)NN1CCNCC1`
2320

Value lookup for Stimulation; key = `CCCCCCCCCCCCCN1CCC(C2CCNCC2)CC1`
755

Value lookup for Stimulation; key = `CCCCCCCCCCCCCCC(=O)N1CCC(CCC2CCN(C)CC2)CC1`
577

Value lookup for Stimulation; key = `CCCCCCCCCCCCCCCCCN1CCC(C2CCN(C)CC2)CC1`
81

Value lookup for Stimulation; key = `CCCCCCCCCCCCCCC(=O)N1CCC(N)CC1`
1050

Value lookup for Stimulation; key = `CCCCCCCCCCCCCCCN1CCC(N)CC1`
3350

Value lookup for Stimulation; key = `CCCCCCCCCCCCCCC(=O)N1CCC(CCC2CCNCC2)CC1`
845

Value lookup for Stimulation; key = `CCCCCCCCCCCCCCC(=O)NC1CCNCC1`
1270

Value lookup for Stimulation; key = `CCCCCCCCCCCCCCCN1CCN(N)CC1`
2330

---

# System: Guanine nucleotide-binding protein G(i) subunit alpha-3 (Homo sapiens)
# Sequence (P08754 whole entry): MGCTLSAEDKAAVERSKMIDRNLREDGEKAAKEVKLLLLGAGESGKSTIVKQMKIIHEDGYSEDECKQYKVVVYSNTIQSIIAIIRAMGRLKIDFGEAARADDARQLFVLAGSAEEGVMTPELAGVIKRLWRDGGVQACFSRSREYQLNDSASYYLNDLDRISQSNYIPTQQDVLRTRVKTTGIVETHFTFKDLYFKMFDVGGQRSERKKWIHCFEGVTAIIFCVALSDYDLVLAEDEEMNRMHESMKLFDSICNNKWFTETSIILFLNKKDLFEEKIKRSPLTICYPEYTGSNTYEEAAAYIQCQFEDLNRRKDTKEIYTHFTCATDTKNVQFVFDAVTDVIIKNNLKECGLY
# Assay text: Concentration required to stimulate binding of [35S]GTP-gamma-S, with G alpha i3
Readout kind: EC50 (µM)
API: value field is a number in µM; no unit string.

Param readout = EC50; param system = Guanine nucleotide-binding protein G(i) subunit alpha-3 (Homo sapiens); param query = `CCCCCCCCCCCCCCC(=O)N1CCN(N)CC1` ; response: value
24.6

Param readout = EC50; param system = Guanine nucleotide-binding protein G(i) subunit alpha-3 (Homo sapiens); param query = `CCCCCCCCCCCCCCC(=O)NC1CCNCC1` ; response: value
34.3

Param readout = EC50; param system = Guanine nucleotide-binding protein G(i) subunit alpha-3 (Homo sapiens); param query = `CCCCCCCCCCCCCCCCCN1CCC(C2CCNCC2)CC1` ; response: value
41.5

---

# System: Guanine nucleotide-binding protein G(o) subunit alpha (Homo sapiens, UniProt P09471)
# Sequence (P09471 2-354 limits assumed): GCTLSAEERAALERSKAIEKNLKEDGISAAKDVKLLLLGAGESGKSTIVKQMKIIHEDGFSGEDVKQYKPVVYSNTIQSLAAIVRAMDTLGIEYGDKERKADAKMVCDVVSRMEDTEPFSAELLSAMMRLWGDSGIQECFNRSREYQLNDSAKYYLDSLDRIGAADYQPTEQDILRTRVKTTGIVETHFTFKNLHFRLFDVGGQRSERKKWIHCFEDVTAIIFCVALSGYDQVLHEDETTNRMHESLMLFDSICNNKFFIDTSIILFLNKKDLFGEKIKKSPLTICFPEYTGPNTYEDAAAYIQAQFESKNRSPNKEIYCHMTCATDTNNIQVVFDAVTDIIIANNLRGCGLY
# Assay text: Percent stimulation of [35S]GTP-gamma-S, binding to G alpha o1 at 5E-5 M of basal for 30 minutes
# Format: functional
Readout kind: Stimulation (%)
API: value field is a number in %; no unit string.

Param readout = Stimulation; param system = Guanine nucleotide-binding protein G(o) subunit alpha (Homo sapiens, UniProt P09471); param query = `CCCCCCCCCCCCCCCN1CCC(CCC2CCN(C)CC2)CC1` ; response: value
132

Param readout = Stimulation; param system = Guanine nucleotide-binding protein G(o) subunit alpha (Homo sapiens, UniProt P09471); param query = `CCCCCCCCCCCCCN1CCC(C2CCN(C)CC2)CC1` ; response: value
420

Param readout = Stimulation; param system = Guanine nucleotide-binding protein G(o) subunit alpha (Homo sapiens, UniProt P09471); param query = `CCCCCCCCCCCCCCC(=O)N1CCC(CCC2CCN(C)CC2)CC1` ; response: value
742

Param readout = Stimulation; param system = Guanine nucleotide-binding protein G(o) subunit alpha (Homo sapiens, UniProt P09471); param query = `CCCCCCCCCCCCCCCNN1CCNCC1` ; response: value
5580

Param readout = Stimulation; param system = Guanine nucleotide-binding protein G(o) subunit alpha (Homo sapiens, UniProt P09471); param query = `CCCCCCCCCCCCCNC1CCNCC1` ; response: value
2350

Param readout = Stimulation; param system = Guanine nucleotide-binding protein G(o) subunit alpha (Homo sapiens, UniProt P09471); param query = `CCCCCCCCCCCCCCC(=O)N1CCN(N)CC1` ; response: value
194

Param readout = Stimulation; param system = Guanine nucleotide-binding protein G(o) subunit alpha (Homo sapiens, UniProt P09471); param query = `CCCCCCCCCCCCCCCN1CCN(N)CC1` ; response: value
2870

Param readout = Stimulation; param system = Guanine nucleotide-binding protein G(o) subunit alpha (Homo sapiens, UniProt P09471); param query = `CCCCCCCCCCCCCCCNC1CCNCC1` ; response: value
3830

Param readout = Stimulation; param system = Guanine nucleotide-binding protein G(o) subunit alpha (Homo sapiens, UniProt P09471); param query = `CCCCCCCCCCCCCCCN1CCC(C2CCNCC2)CC1` ; response: value
1810

Param readout = Stimulation; param system = Guanine nucleotide-binding protein G(o) subunit alpha (Homo sapiens, UniProt P09471); param query = `CCCCCCCCCCCCCCCNC(=O)C1CCN(CCNC=O)CC1` ; response: value
3600

Param readout = Stimulation; param system = Guanine nucleotide-binding protein G(o) subunit alpha (Homo sapiens, UniProt P09471); param query = `CCCCCCCCCCCCCN1CCC(C2CCNCC2)CC1` ; response: value
913

Param readout = Stimulation; param system = Guanine nucleotide-binding protein G(o) subunit alpha (Homo sapiens, UniProt P09471); param query = `CCCCCCCCCCCCCCCCC(=O)N1CCC(C2CCN(C)CC2)CC1` ; response: value
472

Param readout = Stimulation; param system = Guanine nucleotide-binding protein G(o) subunit alpha (Homo sapiens, UniProt P09471); param query = `CCCCCCCCCCCCCCC(=O)N1CCC(C2CCN(C)CC2)CC1` ; response: value
531
